peptide exchange yield values by entry
Target: T1, HLA-B*44:05 (human)
T1 construct: also called peptide-receptive MHC class I molecule
Test: UV peptide exchange, anti-b2m ELISA

TEEITEGVW = > 75%

Please supply the value of reported peptide exchange yield for the item `QESVHVASY`
> 75%

Please supply the value of reported peptide exchange yield for the item `AEDARGWTA`
20 to 50%

Please supply the value of reported peptide exchange yield for the item `REESDWHYL`
50 to 75%

Please supply the value of reported peptide exchange yield for the item `GEYNKHAQLW`
> 75%

Please supply the value of reported peptide exchange yield for the item `KEMQVTISQQL`
> 75%

Please supply the value of reported peptide exchange yield for the item `VEVIPEGAML`
50 to 75%

Please supply the value of reported peptide exchange yield for the item `LEMLDAHRL`
50 to 75%
